Would you kindly list pEC50 for each of these compounds?
Test system: S. mansoni schistosomula
ASSAY_NAME: S. mansoni schistosomula high-throughput phenotype and motility screen (Roboworm), 72 h
Format: cell-based, Schistosoma mansoni
CONDITION_LABEL: Schistosoma mansoni, 72 h; read-out: EC50 on schistosomula (bounds and ranges given)
pEC50: −log10 of the molar value.

Query: Query for S. mansoni schistosomula: what pEC50 does the record show for Cc1ccc(Nc2nc3ccccc3nc2Nc2ccc(C)c(Cl)c2)cc1Cl [Compound 17] ?
Reply: 5.70 to 6.00

Query: # value lookup — system S. mansoni schistosomula, readout pEC50, item Nc1ccc2nc(Nc3ccc(Cl)c(Cl)c3)c(Nc3ccc(Cl)c(Cl)c3)nc2c1 [Compound 22a]
Reply: < 5.70

Query: GET /values?readout=pEC50&system=S. mansoni schistosomula&item= CC(=O)Nc1ccc2nc(Nc3ccc(Cl)c(Cl)c3)c(Nc3ccc(Cl)c(Cl)c3)nc2c1 [Compound 22c]
Reply: < 5.70

Query: Hi! What's the reported pEC50 for Cc1cccc(Nc2nc3ccc([N+](=O)[O-])cc3nc2Nc2cccc(C)c2C)c1C [Compound 27] on S. mansoni schistosomula?
Reply: < 5.00

Query: Item: O=[N+]([O-])c1ccc2nc(NCc3ccccc3)c(NCc3ccccc3)nc2c1 [Compound 36] Test system: S. mansoni schistosomula Read-out: pEC50 Value: ?
Reply: < 5.70

---

System: HepG2 cells
ASSAY_NAME: HepG2 MTT cytotoxicity assay
CONDITION_LABEL: HepG2 CC50 versus adult worm EC50
OBSERVABLE: Selectivity Index (SI) Adult worms
A bare number is all that is needed in reply.

Query: Consider the molecule shown here: CC(=O)Nc1ccc2nc(Nc3ccc(Cl)c(Cl)c3)c(Nc3ccc(Cl)c(Cl)c3)nc2c1 [Compound 22c] What is its recorded Selectivity Index (SI) Adult worms?
Reply: 6.52

Query: What value of Selectivity Index (SI) Adult worms has been recorded for this entry: O=[N+]([O-])c1ccc2nc(Nc3ccc(F)c(C(F)(F)F)c3)c(Nc3ccc(F)c(C(F)(F)F)c3)nc2c1
Reply: 60.99

Query: # lookup: Selectivity Index (SI) Adult worms of O=[N+]([O-])c1ccc2nc(Nc3ccc(Br)cc3)c(Nc3ccc(Br)cc3)nc2c1
Reply: 32.52

Query: Any idea what Selectivity Index (SI) Adult worms was measured for O=[N+]([O-])c1ccc2nc(Nc3cc(C(F)(F)F)ccc3F)c(Nc3cc(C(F)(F)F)ccc3F)nc2c1 ?
Reply: 17.87

Query: For the molecule O=C(C1CCCCC1)N1CC(=O)N2CCc3ccccc3C2C1 (stereo not shown) [PZQ, praziquantel, reference compound] , what Selectivity Index (SI) Adult worms is on record?
Reply: 945.31

Query: Recorded Selectivity Index (SI) Adult worms for CCCCCC(=O)Nc1ccc2nc(Nc3ccc(Cl)c(Cl)c3)c(Nc3ccc(Cl)c(Cl)c3)nc2c1 [Compound 22d] , please?
Reply: 7.65

Query: Name the recorded Selectivity Index (SI) Adult worms for O=[N+]([O-])c1ccc2nc(Nc3cccc(Cl)c3)c(Nc3cccc(Cl)c3)nc2c1 .
Reply: 47.99

---

Give EC50 for every item shown.
System: S. mansoni adult worms
ASSAY_NAME: S. mansoni adult worm motility screen (WormassayGP2), 72 h
Format: cell-based, Schistosoma mansoni
CONDITION_LABEL: Schistosoma mansoni, Table 4, Series A; read-out: Anti-schistosomal activity EC50 Adult (nM) Motility
Answer by giving the amount and then stating its unit.

Query: Entry O=[N+]([O-])c1ccc2nc(Nc3ccc(Br)cc3)c(Nc3ccc(Br)cc3)nc2c1 has what EC50?
Reply: 122 nM

Query: For the molecule COc1ccc(Nc2nc3ccc([N+](=O)[O-])cc3nc2Nc2ccc(OC)c(C(F)(F)F)c2)cc1C(F)(F)F , what EC50 is on record?
Reply: 44 nM

Query: Bench note: what EC50 did O=[N+]([O-])c1ccc2nc(Nc3ccc(F)c(C(F)(F)F)c3)c(Nc3ccc(F)c(C(F)(F)F)c3)nc2c1 show?
Reply: 11 nM

Query: What EC50 value was documented for this molecule, O=[N+]([O-])c1ccc2nc(Nc3ccc(Cl)c(Cl)c3)c(Nc3ccc(Cl)c(Cl)c3)nc2c1 ?
Reply: 84.7 nM

---

Please provide measured EC50 for the entries that follow.
System: S. mansoni adult worms
ASSAY_NAME: S. mansoni adult worm motility screen (WormassayGP2), 72 h
Assay type: cell-based, Schistosoma mansoni
CONDITION_LABEL: Schistosoma mansoni, Table 4, Series A; read-out: Anti-schistosomal activity EC50 Adult (nM) Motility

Query: GET /values?readout=EC50&system=S. mansoni adult worms&item= O=[N+]([O-])c1ccc2nc(Nc3cccc(C(F)(F)F)c3)c(Nc3cccc(C(F)(F)F)c3)nc2c1
Reply: 2.59 nM

Query: Entry O=[N+]([O-])c1ccc2nc(Nc3cc(C(F)(F)F)ccc3F)c(Nc3cc(C(F)(F)F)ccc3F)nc2c1 , system S. mansoni adult worms: what EC50 was measured?
Reply: 5.6 nM

Query: Notebook entry, S. mansoni adult worms assay: EC50 of O=[N+]([O-])c1ccc2nc(Nc3ccc(F)cc3)c(Nc3ccc(F)cc3)nc2c1 = ?
Reply: 382 nM

---

For each record, write down the corresponding EC50.
System: S. mansoni schistosomula
ASSAY_NAME: S. mansoni schistosomula high-throughput phenotype and motility screen (Roboworm), 72 h
Assay type: cell-based, Schistosoma mansoni
CONDITION_LABEL: Schistosoma mansoni, Table 4, Series A; read-out: Anti-schistosomal activity EC50 Schistosomula (μM) Motility

Query: Which EC50 reading was recorded for the compound O=[N+]([O-])c1ccc2nc(Nc3ccc(C(F)(F)F)cc3)c(Nc3ccc(C(F)(F)F)cc3)nc2c1 ?
Reply: 0.28 µM

Query: Requested read-out: EC50. Entry: O=[N+]([O-])c1ccc2nc(Nc3ccc(F)cc3)c(Nc3ccc(F)cc3)nc2c1
Reply: 1.4 µM

Query: Please look up its EC50: Cc1cccc(Nc2nc3ccc([N+](=O)[O-])cc3nc2Nc2cccc(C)c2C)c1C
Reply: > 10 µM

Query: Given O=[N+]([O-])c1ccc2nc(Nc3ccc(Cl)c(Cl)c3)c(Nc3ccc(Cl)c(Cl)c3)nc2c1 , state its recorded EC50.
Reply: 0.42 µM

Query: Query (compound): O=[N+]([O-])c1ccc2nc(Nc3cc(C(F)(F)F)ccc3F)c(Nc3cc(C(F)(F)F)ccc3F)nc2c1 ; field requested: EC50
Reply: 0.15 µM

Query: Can you share its EC50? I mean this compound: O=[N+]([O-])c1ccc2nc(Nc3ccc(Cl)cc3)c(Nc3ccc(Cl)cc3)nc2c1
Reply: 0.39 µM

Query: I am curious: what EC50 value has been reported for COc1ccc(Nc2nc3ccc([N+](=O)[O-])cc3nc2Nc2ccc(OC)c(C(F)(F)F)c2)cc1C(F)(F)F ?
Reply: 0.69 µM

Query: # query: EC50 of entry O=[N+]([O-])c1ccc2nc(Nc3ccc(Br)cc3)c(Nc3ccc(Br)cc3)nc2c1
Reply: 0.83 µM

Query: May I ask what EC50 has been recorded for O=[N+]([O-])c1ccc2nc(Nc3cc(F)cc(C(F)(F)F)c3)c(Nc3cc(F)cc(C(F)(F)F)c3)nc2c1 ?
Reply: 0.43 µM

Query: What value of EC50 has been reported for the following compound? O=[N+]([O-])c1ccc2nc(Nc3cccc(C(F)(F)F)c3)c(Nc3cccc(C(F)(F)F)c3)nc2c1
Reply: 0.43 µM

Query: What measured EC50 goes with O=[N+]([O-])c1ccc2nc(Nc3cccc(Cl)c3)c(Nc3cccc(Cl)c3)nc2c1 ?
Reply: 1.3 µM

Query: What measured EC50 goes with O=[N+]([O-])c1ccc2nc(Nc3ccc(F)c(C(F)(F)F)c3)c(Nc3ccc(F)c(C(F)(F)F)c3)nc2c1 ?
Reply: 0.54 µM

---

Tested on: adult S. japonicum male worms
ASSAY_NAME: In vitro screening of S. japonicum adults at 100 nM (WormAssay motility, descriptors, severity score)
Format: cell-based, Schistosoma japonicum
Set-up: key: Dark = dark; S = Slow; S-uncoord = uncoordinated slow movements; O-uncoord = uncoordinated fast movements; On sides = male worms are not adhering to dish with ventral sucker; Shrunk = worms are not flexing and are smaller than usual; Teg damage = outer surface (tegument of the worm) is damaged; Deg= degenerating; D = Dead
CONDITION_LABEL: S. japonicum, 48 h, one line per replicate
Protocol: For each species, parasite recovery involved reverse perfusion of the hepatic portal and mesenteric system using DMEM (Fisher Scientific). Parasites were washed six times with Basch 169 medium supplemented with 100 U/ml penicillin and 100 μg/ml streptomycin before manually distributing approximately 5 males per well (on occasion 1 or 2 females might also be present) of a 24-well plate (Corning Costar 3524). […]
OBSERVABLE: DESCRIPTORS 48 h

O=[N+]([O-])c1ccc2nc(Nc3ccc(Cl)cc3)c(Nc3ccc(Cl)cc3)nc2c1
S
O=[N+]([O-])c1ccc2nc(Nc3cc(C(F)(F)F)ccc3F)c(Nc3cc(C(F)(F)F)ccc3F)nc2c1
Dying, deg
O=[N+]([O-])c1ccc2nc(Nc3ccc(C(F)(F)F)cc3)c(Nc3ccc(C(F)(F)F)cc3)nc2c1
Dying, deg
